Could you please report measured inhibition for the items listed next?
# test-system: Dual specificity protein phosphatase 3 (Homo sapiens) (UniProt P51452)
# Sequence (P51452 whole entry, looked up): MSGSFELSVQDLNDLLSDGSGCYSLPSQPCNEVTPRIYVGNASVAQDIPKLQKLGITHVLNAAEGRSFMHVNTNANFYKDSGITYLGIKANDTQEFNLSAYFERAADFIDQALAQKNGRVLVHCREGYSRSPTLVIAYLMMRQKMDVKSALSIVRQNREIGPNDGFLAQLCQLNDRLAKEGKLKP
# protocol-description: VHR1 phosphatase inhibitors, biochemical (AID 1878)
# test-parameters: recombinant VHR phosphatase, fluorogenic substrate; at 13.3 µM; active compounds read high
Out of some 1,000 compounds screened, about 200 (20%) were called active. Only a sample is shown. Measured potencies and affinities stand elsewhere.
State the answer as a number, implicitly in %.

Considering CCC1C(=O)C(C)(C)C(=O)OC1c1ccc([N+](=O)[O-])cc1 (configuration not stated) , its inhibition with Dual specificity protein phosphatase 3 (Homo sapiens) (UniProt P51452) was recorded as -5.8

Considering "CC(C)c1ccc(NC(=O)N2CCN(S(=O)(=O)c3ccccc3)CC2)cc1" , its inhibition with Dual specificity protein phosphatase 3 (Homo sapiens) (UniProt P51452) was recorded as 0

Considering "CCOc1ccccc1NC(=O)C1CCN(C(=O)c2cccs2)CC1" , its inhibition with Dual specificity protein phosphatase 3 (Homo sapiens) (UniProt P51452) was recorded as -20.3

Considering "O=C(c1ccccc1)C1CCN(C(=O)c2ccc(Cl)cc2)CC1" , its inhibition with Dual specificity protein phosphatase 3 (Homo sapiens) (UniProt P51452) was recorded as -17.9

Considering "COc1ccc2c(c1)c(=O)oc1c(C)c(OCc3cc(C(=O)O)oc3C)ccc12" , its inhibition with Dual specificity protein phosphatase 3 (Homo sapiens) (UniProt P51452) was recorded as 40.3

Considering "CC(C)(C)NC(=S)N1CCC(C(=O)c2ccc(F)cc2)CC1" , its inhibition with Dual specificity protein phosphatase 3 (Homo sapiens) (UniProt P51452) was recorded as -7.6

Considering "CCOc1ccc(S(=O)(=O)N2CCOCC2)cc1NC(=O)CSCC(=O)Nc1cccc(C)c1" , its inhibition with Dual specificity protein phosphatase 3 (Homo sapiens) (UniProt P51452) was recorded as -2.1

Considering "CCOc1cc(/C=N/NC(=O)c2ccc(-c3csc(Nc4ccc(C)cc4)n3)cc2)ccc1OCC(=O)O" , its inhibition with Dual specificity protein phosphatase 3 (Homo sapiens) (UniProt P51452) was recorded as 75.5

Considering "CN1CCN(c2nc(-c3ccccc3Cl)nc3ccccc23)CC1" , its inhibition with Dual specificity protein phosphatase 3 (Homo sapiens) (UniProt P51452) was recorded as 5.7

Considering "COc1cc(CNc2ccc(N3CCN(C(C)=O)CC3)cc2)ccc1OCc1ccc(F)cc1" , its inhibition with Dual specificity protein phosphatase 3 (Homo sapiens) (UniProt P51452) was recorded as -8.4

Considering "CCOc1ccc(N(C)C(=O)CCc2nnc3ccc(N4CCOCC4)nn23)cc1" , its inhibition with Dual specificity protein phosphatase 3 (Homo sapiens) (UniProt P51452) was recorded as -3.3

Considering COc1ccc(OCC(O)CN(CC(O)COc2ccc(OC)cc2)c2cccc(O)c2)cc1 (configuration not stated) , its inhibition with Dual specificity protein phosphatase 3 (Homo sapiens) (UniProt P51452) was recorded as 3.9

Considering "Cn1nnc2cc(C(=O)Nc3ccccc3F)ccc21" , its inhibition with Dual specificity protein phosphatase 3 (Homo sapiens) (UniProt P51452) was recorded as -4.2

Considering CSCCC1NC(=S)N(Cc2ccccc2)C1=O (configuration not stated) , its inhibition with Dual specificity protein phosphatase 3 (Homo sapiens) (UniProt P51452) was recorded as -5.4

Considering "Cc1cc(C)cc(N2CC(O)=C(c3nc4ccccc4c(=O)[nH]3)C2=N)c1" , its inhibition with Dual specificity protein phosphatase 3 (Homo sapiens) (UniProt P51452) was recorded as 60.5

Considering "O=C(Nc1c(C(=O)N2CCC(N3CCCCC3)CC2)oc2ccccc12)c1ccc(F)cc1" , its inhibition with Dual specificity protein phosphatase 3 (Homo sapiens) (UniProt P51452) was recorded as -2.2

Considering "COc1ccc(CN2C(=O)c3cccnc3C2=O)cc1S(=O)(=O)NC1CCCCC1" , its inhibition with Dual specificity protein phosphatase 3 (Homo sapiens) (UniProt P51452) was recorded as -2.5

Considering "COc1ccc(OC)c(-c2csc(NC(=O)Cc3ccc(F)cc3)n2)c1" , its inhibition with Dual specificity protein phosphatase 3 (Homo sapiens) (UniProt P51452) was recorded as 0.5

Considering COCCn1c(SCC(=O)N2CCCC(C)C2)nnc1-c1ccco1 (configuration not stated) , its inhibition with Dual specificity protein phosphatase 3 (Homo sapiens) (UniProt P51452) was recorded as -3.4

Considering "CCOc1ccc(-c2cc(C(=O)NCCCN3CCCC3)c3ccccc3n2)cc1" , its inhibition with Dual specificity protein phosphatase 3 (Homo sapiens) (UniProt P51452) was recorded as -16.4

Considering Cc1occc1C(=O)N1CCCC(CCC(=O)NCc2ccc(F)c(F)c2)C1 (configuration not stated) , its inhibition with Dual specificity protein phosphatase 3 (Homo sapiens) (UniProt P51452) was recorded as -8.6

Considering "CCOC(=O)c1ccc(S(=O)(=O)Nc2ccc(N3CCOCC3)cc2)cc1" , its inhibition with Dual specificity protein phosphatase 3 (Homo sapiens) (UniProt P51452) was recorded as -9

###

# test-system: Dual specificity protein phosphatase 3 (Homo sapiens)
# protocol-description: VHR1 phosphatase inhibitors, biochemical (AID 1878)
# test-parameters: recombinant VHR phosphatase, fluorogenic substrate; at 13.3 µM; active compounds read high
The whole screen tested about 1,000 compounds, of which about 200 (20%) were called active. Only a sample is shown. Measured potencies and affinities stand elsewhere.
measurement-label: inhibition (%)
State the answer as a number, implicitly in %.

Field inhibition (entry CCN(CC)CCNC(=O)Cn1cnc2sc(C)c(S(=O)(=O)N3CC(C)CC(C)C3)c2c1=O (configuration not stated) ) reads -8.4

Field inhibition (entry "COc1cccc(-c2ocnc2C(=O)Nc2ccc(N3CCOCC3)cc2N2CCOCC2)c1" ) reads -5.2

Field inhibition (entry "C=CCc1cc(Cl)ccc1OCCOCCNC(C)(C)C" ) reads -15

Field inhibition (entry "CC1(C)CC(NC(=O)c2cccc(Cl)c2)CC(C)(C)N1" ) reads 2.3

Field inhibition (entry "O=C(Nc1nnc(SCc2c(Cl)cccc2Cl)s1)c1ccc2ncsc2c1" ) reads 66.9

Field inhibition (entry CCC1CCCCN1CCCNC(=O)CS(=O)Cc1nc(-c2ccc(OC)c(OC)c2)oc1C (configuration not stated) ) reads 15.7

Field inhibition (entry "O=C(CCC1CCN(Cc2ccc(Cl)cc2)CC1)NC1CC1" ) reads -8.1

Field inhibition (entry "CCOCCn1cnc2sc(C(=O)NCCCN3CCOCC3)c(C)c2c1=O" ) reads 9.7

Field inhibition (entry COc1ccccc1N1CCN(S(=O)(=O)c2ccc3c(c2)CC(C)N3C(C)=O)CC1 (configuration not stated) ) reads 2.4

Field inhibition (entry "COc1ccc(Cl)cc1-n1c(=S)sc2c(=O)n(-c3ccc(F)cc3)c(SCC(=O)O)nc21" ) reads -3.3

Field inhibition (entry "CCOc1ccccc1CN1CCC(n2nccc2NC(=O)C2CCCC2)CC1" ) reads -19.2

Field inhibition (entry "CCN(CC)c1ccc(NC(=O)CCNS(=O)(=O)c2ccc3c(c2)CCC(=O)N3)c(C)c1" ) reads -13.1

Field inhibition (entry "N#Cc1nc(-c2ccc(OCc3ccc(Cl)cc3)cc2)oc1N1CCC(C(N)=O)CC1" ) reads 93.5

Field inhibition (entry "CCOc1ccc(C(=O)N2CCC3(CC2)NCCc2[nH]cnc23)cc1" ) reads -8.9

Field inhibition (entry "Cc1cccc(CSc2[nH]c(=O)ncc2C)c1" ) reads 1

Field inhibition (entry "CC(=O)c1ccc(S(=O)(=O)Nc2ccc(N3CCOCC3)cc2)cc1" ) reads -2

Field inhibition (entry "CS(=O)(=O)/C(C#N)=C/c1cccn1S(=O)(=O)c1ccccc1" ) reads -10.1

Field inhibition (entry "Cn1c(=O)c(=O)n(C)c2cc(N3CCOCC3)c(NS(=O)(=O)c3ccc(F)c(Cl)c3)cc21" ) reads -2.4

Field inhibition (entry "O=S(=O)(Nc1ccc(Cl)cc1)c1ccc(N2CCOCC2)c(NC(=S)NCCN2CCOCC2)c1" ) reads 57.1

Field inhibition (entry "CCOc1ccccc1OCCN1CCCC1" ) reads -12.9

Field inhibition (entry "Nc1ncc(Br)cc1S(=O)(=O)NCCC(=O)NCc1ccc(F)cc1" ) reads 4.1

Field inhibition (entry "O=C(Nc1cccc(F)c1)c1ccc2ncsc2c1" ) reads -14.9

###

# test-system: Dual specificity protein phosphatase 3 (Homo sapiens) (UniProt P51452)
# protocol-description: VHR1 phosphatase inhibitors, biochemical (AID 1878)
# test-parameters: recombinant VHR phosphatase, fluorogenic substrate; at 13.3 µM; active compounds read high
Among all 1,000 compounds or so, about 200 (20%) were called active. A selection follows. Potency and affinity values are given separately.
measurement-label: inhibition (%)
State the answer as a number, implicitly in %.

Field inhibition (entry O=C(O)C(CCCCNS(=O)(=O)c1ccc(F)cc1)NS(=O)(=O)c1ccc(F)cc1 (stereo unspecified) ) reads -6.2

Field inhibition (entry "Cc1ccc(C)c(Nc2ccc3nonc3c2[N+](=O)[O-])c1" ) reads -8.6

Field inhibition (entry "COc1ccc(-c2nnc(Nc3nc4c(OC)cccc4s3)o2)cc1" ) reads 95.5

Field inhibition (entry "O=S(=O)(c1ccccc1)N1CCn2c(nc3ccccc32)C1" ) reads -0.8

Field inhibition (entry COc1ccccc1N1CCN(C2CCCN(Cc3cc(F)cc(F)c3)C2)CC1 (stereo unspecified) ) reads -2.1

Field inhibition (entry "C/C(=N\N1CCN(c2ccccc2)CC1)c1ccc(O)cc1" ) reads -1.9

Field inhibition (entry NC(=O)C(c1ccccc1)c1ccc(C(=O)c2ccccc2)cc1 (stereo unspecified) ) reads -3.2

Field inhibition (entry COc1ccc(S(=O)(=O)N2CCCOC2CNC(=O)C(=O)NC2CCCC2)cc1 (stereo unspecified) ) reads -10.2

Field inhibition (entry "CSc1nsc2nc(=O)c(/C=C3\C(C)=Nc4ccccc43)c(N)n12" ) reads 7.5

Field inhibition (entry CC1(C(=O)O)CCC(C(=O)NC2CCCCCC2)C1(C)C (stereo unspecified) ) reads -1.3

Field inhibition (entry CC(Oc1ccc2ccc(=O)oc2c1)C(=O)NC1CC(C)(C)NC(C)(C)C1 (stereo unspecified) ) reads -2.5
